These entries and their values trace back to ChEMBL document CHEMBL4400575.

Entries with their measured pKd, system Protein cereblon (Homo sapiens):
pKd: −log10 of the molar value.

In plain terms, N#Cc1ccc(-c2ccc(OC3CCC(=O)NC3=O)cc2)cc1 (stereo not given) has a documented pKd of ≥ 5.00

In plain terms, Cc1nnc2n1-c1ccc(-c3cnn(CCCCCCN4CCN(c5ccc(NC6CCC(=O)NC6=O)cc5)CC4)c3)cc1C(c1ccc(Cl)cc1)=NC21CC1 (stereo not given) has a documented pKd of ≥ 5.00

In plain terms, Cc1sc2c(c1C)C(c1ccc(Cl)cc1)=N[C@@H](CC(=O)NCCCCCCCCN1CCN(c3ccc(NC4CCC(=O)NC4=O)cc3)CC1)c1nnc(C)n1-2 (stereo not given in full) has a documented pKd of ≥ 5.00

In plain terms, CN1CCN(c2ccc(NC3CCC(=O)NC3=O)cc2)CC1 (stereo not given) has a documented pKd of ≥ 5.00

In plain terms, O=C1CCC(Nc2ccccc2N2CCOCC2)C(=O)N1 (stereo not given) has a documented pKd of 4.30 to 5.00
